Reported LD50 at 48 h by item:
assay: Acute toxicity (LD50) by intraperitoneal injection to mice; conditions: mouse, in vivo, ip, mortality 48 hours after injection
Unit mg/kg implied. Number only.

Worked examples follow.
Compound	Result type	Observed result
CCC1CC=NN1C(=O)OC (centres unmarked) [Compound 30, 1-Methoxycarbonyl-5-ethyl-2-pyrazoline]	LD50 at 48 h	740
O=C(c1cccnc1)N1N=CCC1c1ccco1 (centres unmarked) [Compound 7]	LD50 at 48 h	1100
O=C(CN1N=CCC1c1ccccc1)c1ccccc1 (centres unmarked) [Compound 61, 1-Benzoylmethyl-5-phenyl-2-pyrazoline]	LD50 at 48 h	540
CC1CC=NN1C(=O)c1cccnc1 (centres unmarked) [Compound 17]	LD50 at 48 h	850
O=C(c1cnccn1)N1N=CCC1c1ccccc1 (centres unmarked) [Compound 8, 1-Pyrazylcarbonyl-5-phenyl-2-pyrazoline]	LD50 at 48 h	710

[ask] Give the reported LD50 at 48 h for this compound. FC(F)(F)c1cccc(C2CC=NN2)c1 (centres unmarked) [Compound 45, 5-(3-Trifluoromethylphenyl)-2-pyrazoline]
[reply] 630

[ask] Give the reported LD50 at 48 h for this compound. O=C(c1ccccc1)N1N=CCC1c1ccccc1 (centres unmarked) [Compound 59, 1-Benzoyl-5-phenyl-2-pyrazoline]
[reply] 600

[ask] Give the reported LD50 at 48 h for this compound. COc1cccc(C2CC=NN2C(=O)c2cccnc2)c1 (centres unmarked) [Compound 5]
[reply] 630
